Target: LRRK2(G2019S mutation, GST-LRRK2(amino acids 970-2527)) (Homo sapiens (Human), UniProt Q5S007, G2019S)
Sequence (Q5S007 970-2527 G2019S): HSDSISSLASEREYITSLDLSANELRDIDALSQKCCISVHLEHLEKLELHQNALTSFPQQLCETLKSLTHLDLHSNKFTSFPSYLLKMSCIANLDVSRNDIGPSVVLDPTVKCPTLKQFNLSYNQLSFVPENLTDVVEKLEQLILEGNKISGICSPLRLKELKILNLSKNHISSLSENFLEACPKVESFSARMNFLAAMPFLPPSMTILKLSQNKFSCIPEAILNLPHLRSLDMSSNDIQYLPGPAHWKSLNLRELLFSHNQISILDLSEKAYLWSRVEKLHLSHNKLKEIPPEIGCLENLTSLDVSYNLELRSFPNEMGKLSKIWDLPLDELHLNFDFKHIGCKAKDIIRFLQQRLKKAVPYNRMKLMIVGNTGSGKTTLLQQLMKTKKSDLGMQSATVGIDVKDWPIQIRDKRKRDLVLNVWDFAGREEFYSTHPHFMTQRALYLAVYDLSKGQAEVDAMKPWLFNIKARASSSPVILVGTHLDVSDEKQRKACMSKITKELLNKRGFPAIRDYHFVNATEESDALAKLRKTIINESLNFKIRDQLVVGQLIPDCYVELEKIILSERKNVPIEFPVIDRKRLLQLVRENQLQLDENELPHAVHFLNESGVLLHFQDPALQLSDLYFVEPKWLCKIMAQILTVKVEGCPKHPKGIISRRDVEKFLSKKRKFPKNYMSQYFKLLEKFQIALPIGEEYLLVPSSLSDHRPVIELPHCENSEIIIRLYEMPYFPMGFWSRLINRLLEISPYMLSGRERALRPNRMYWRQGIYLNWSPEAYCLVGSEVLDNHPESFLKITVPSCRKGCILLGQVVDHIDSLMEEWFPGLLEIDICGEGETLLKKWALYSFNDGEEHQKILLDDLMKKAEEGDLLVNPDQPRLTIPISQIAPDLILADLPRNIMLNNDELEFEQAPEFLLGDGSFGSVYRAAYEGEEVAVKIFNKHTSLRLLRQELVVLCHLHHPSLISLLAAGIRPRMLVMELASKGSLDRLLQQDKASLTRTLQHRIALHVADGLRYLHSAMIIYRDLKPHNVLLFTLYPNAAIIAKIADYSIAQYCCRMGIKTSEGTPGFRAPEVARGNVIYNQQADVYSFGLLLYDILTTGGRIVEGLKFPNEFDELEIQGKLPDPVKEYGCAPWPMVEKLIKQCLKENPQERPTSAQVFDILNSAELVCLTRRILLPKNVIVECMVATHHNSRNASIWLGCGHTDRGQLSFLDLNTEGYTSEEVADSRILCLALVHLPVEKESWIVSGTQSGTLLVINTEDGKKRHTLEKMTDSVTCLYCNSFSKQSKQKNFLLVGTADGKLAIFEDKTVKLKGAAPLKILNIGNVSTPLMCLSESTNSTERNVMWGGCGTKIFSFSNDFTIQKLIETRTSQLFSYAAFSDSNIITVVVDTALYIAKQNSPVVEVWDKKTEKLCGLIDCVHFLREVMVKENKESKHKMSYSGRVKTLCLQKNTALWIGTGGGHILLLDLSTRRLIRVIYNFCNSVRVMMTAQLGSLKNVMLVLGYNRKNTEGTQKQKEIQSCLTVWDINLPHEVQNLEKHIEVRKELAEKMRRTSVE
Assay: LRRK2 Km ATP LanthaScreen Assay
Type: biochemical
Conditions: Km ATP (184 μM ATP solution), G2019S LRRK2, mean IC50
PARAMETER: log10(IC50) (log10 of the value in nM)

| GIVEN_SMILES | log10(IC50) |
| --- | --- |
| CC(C)Oc1cc2c(-c3cc(N4CCO[C@H](C)C4)ncn3)n[nH]c2cc1F | 0.46 |
| CC(C)=Cc1ccc2[nH]nc(-c3cc(N4CCN(C)C(=O)C4)ncn3)c2c1 | 1.56 |
| Cn1cc(-c2cc3c(-c4cc(N5CCS(=O)(=O)CC5)ncn4)n[nH]c3cc2F)cn1 | 2.16 |
| CC(C)=Cc1ccc2[nH]nc(-c3cc(N4C[C@@H](C)O[C@@H](C)C4)ncn3)c2c1 | 1.31 |
| CC(C)Oc1cc2c(-c3cc(N4CCO[C@@H](C)C4)ncn3)n[nH]c2cc1F | 0.70 |
| CN(C)[C@@H]1CN(c2cc(-c3n[nH]c4cc(F)c(-c5cnn(C)c5)cc34)ncn2)C[C@H]1O | 1.83 |
| Cn1cc(-c2ccc3[nH]nc(-c4cc(N5C[C@H](F)[C@@H](F)C5)ncn4)c3c2)cn1 | 0.58 |
| COCCOc1ccc2[nH]nc(-c3cc(N4CCN(C(C)=O)CC4)ncn3)c2c1 | 2.11 |

====

Molecular target: LRRK2(G2019S mutation, GST-LRRK2(amino acids 970-2527)) (Homo sapiens (Human), UniProt Q5S007, G2019S)
Assay: LRRK2 Km ATP LanthaScreen Assay
Format: biochemical
Conditions: Km ATP (184 μM ATP solution), G2019S LRRK2, mean IC50

| MOLECULE | IC50 (nM) |
| --- | --- |
| COC[C@@H](C)Oc1ccc2[nH]nc(-c3cc(N4C[C@@H](C)O[C@@H](C)C4)ncn3)c2c1 | 39.1 |
| CCOc1ccc2[nH]nc(-c3cc(N4C[C@@H](C)O[C@@H](C)C4)ncn3)c2c1 | 12.8 |
| Cn1cc(-c2ccc3[nH]nc(-c4cc(N5CCOC6(CC6)C5)ncn4)c3c2)cn1 | 2.01 |
| CC(C)Oc1ccc2[nH]nc(-c3cc(N4CCC(CF)C4)ncn3)c2c1 (centres unmarked) | 6.9 |
| COCCOc1ccc2[nH]nc(-c3cc(N4CCO[C@H](C)C4)ncn3)c2c1 | 42.8 |
| Cn1cc(-c2ccc3[nH]nc(-c4cc(N5CCN(C6CC6)CC5)ncn4)c3c2)cn1 | 2.62 |
| CC(C)N1CCN(c2cc(-c3n[nH]c4ccc(-c5cnn(C)c5)cc34)ncn2)CC1 | 0.73 |
| CC(C)Oc1ccc2[nH]nc(-c3cc(N4CCN(c5ncccn5)CC4)ncn3)c2c1 | 11.8 |

====

This section presents molecules with their documented pIC50 values.
Target: LRRK2(G2019S mutation, GST-LRRK2(amino acids 970-2527)) (Homo sapiens (Human), UniProt Q5S007, G2019S)
Assay: LRRK2 Km ATP LanthaScreen Assay
Format: biochemical
Settings: Table U
pIC50: −log10 of the molar value.

| MOLECULE | pIC50 |
| --- | --- |
| COc1ccncc1-c1ccc2[nH]nc(-c3cc(N4CCOCC4)ncn3)c2c1 [Example U13] | 8.76 |
| Cc1n[nH]c(C)c1-c1ccc2[nH]nc(-c3cc(N4CCOCC4)ncn3)c2c1 [Example U19] | 8.59 |
| C1=C(c2ccc3[nH]nc(-c4cc(N5CCOCC5)ncn4)c3c2)CCNC1 [Example U12] | 7.15 |
| COc1ccncc1-c1ccc2[nH]nc(-c3cc(N4CCC(F)(F)CC4)ncn3)c2c1 [Example U4] | 8.18 |
| COc1ccncc1-c1ccc2[nH]nc(-c3cc(N4C[C@@H](C)O[C@@H](C)C4)ncn3)c2c1 [Example U26] | 9.12 |
| c1nc(-c2n[nH]c3ccc(-c4cn[nH]c4)cc23)cc(N2CCOCC2)n1 [Example U16] | 8.64 |
| Cc1ccc(-c2ccc3[nH]nc(-c4cc(N5CCOCC5)ncn4)c3c2)cc1 [Example U15] | 6.60 |
| C[C@@H]1CN(c2cc(-c3n[nH]c4ccc(-c5ccn[nH]5)cc34)ncn2)C[C@H](C)O1 [Example U28] | 8.84 |

====

System: kinases
Test: Kinase selectivity using Z'-LYTE or Adapta
Type: biochemical
Details: 1 μM of Example; Z-LYTE platform

| COMPOUND | percent inhibition CDK1/cyclin B (%) |
| --- | --- |
| CC(C)Oc1ccc2[nH]nc(-c3cc(N4CCN(CCF)CC4)ncn3)c2c1 [Example D15] | 10 |
| CC(C)Oc1cc2c(-c3cc(N4CCN(C)CC4)ncn3)n[nH]c2cc1F [Example D25] | 17 |
| CC(C)Oc1ccc2[nH]nc(-c3cc(N4CCO[C@H](C)C4)ncn3)c2c1 [Example D2] | 7 |
| CC(C)Oc1ccc2[nH]nc(-c3cc(N4CCOCC4)ncn3)c2c1 [Example D6] | 7 |

====

Target: LRRK2(G2019S mutation, GST-LRRK2(amino acids 970-2527)) (Homo sapiens (Human), UniProt Q5S007, G2019S)
Assay: LRRK2 Km ATP LanthaScreen Assay
Assay type: biochemical
Details: Table U
pIC50: −log10 of the molar value.
Each entry gets Condition not met if its pIC50 stays under 8, and Condition met if its pIC50 is 8 or above.

| GIVEN_SMILES | GROUP_LABEL |
| --- | --- |
| COc1ccncc1-c1ccc2[nH]nc(-c3cc(N4CCN(C(C)C)CC4)ncn3)c2c1 | Condition met |
| Cc1ncc(-c2ccc3[nH]nc(-c4cc(N5CCOCC5)ncn4)c3c2)s1 | Condition met |
| FC1(F)CCN(c2cc(-c3n[nH]c4ccc(C5=CCNCC5)cc34)ncn2)CC1 | Condition not met |
| Cc1n[nH]c(C)c1-c1ccc2[nH]nc(-c3cc(N4CCO[C@H](C)C4)ncn3)c2c1 | Condition met |
| FC1(F)CCN(c2cc(-c3n[nH]c4ccc(-c5ccoc5)cc34)ncn2)CC1 | Condition not met |
| c1cc(-c2ccc3[nH]nc(-c4cc(N5CCOCC5)ncn4)c3c2)[nH]n1 | Condition met |
| c1nc(-c2n[nH]c3ccc(-c4ccoc4)cc23)cc(N2CCOCC2)n1 | Condition not met |
| CC(C)N1CCN(c2cc(-c3n[nH]c4ccc(-c5cccs5)cc34)ncn2)CC1 | Condition not met |
| CC(C)N1CCN(c2cc(-c3n[nH]c4ccc(-c5cn[nH]c5)cc34)ncn2)CC1 | Condition met |
| c1nc(-c2n[nH]c3ccc(-c4ccsc4)cc23)cc(N2CCOCC2)n1 | Condition not met |
| C[C@@H]1CN(c2cc(-c3n[nH]c4ccc(-c5cn[nH]c5)cc34)ncn2)C[C@H](C)O1 | Condition met |

====

Biological target: LRRK2(G2019S mutation, GST-LRRK2(amino acids 970-2527)) (Homo sapiens (Human), UniProt Q5S007, G2019S)
Assay: LRRK2 Km ATP LanthaScreen Assay
Assay type: biochemical
Settings: Examples Q1-Q20
PARAMETER: IC50 (nM)

| GIVEN_SMILES | TEST_RESULT |
| --- | --- |
| COc1ccc(-c2ccc3[nH]nc(-c4cc(N5C[C@@H](C)O[C@@H](C)C5)ncn4)c3c2)cn1 | 41.1 |
| C[C@@H]1CN(c2cc(-c3n[nH]c4ccc(-c5ccncc5)cc34)ncn2)C[C@H](C)O1 | 49.5 |
| C[C@@H]1CN(c2cc(-c3n[nH]c4ccc(-c5ccnn5C)cc34)ncn2)C[C@H](C)O1 | 32.1 |
| COc1ncccc1-c1ccc2[nH]nc(-c3cc(N4C[C@@H](C)O[C@@H](C)C4)ncn3)c2c1 | 158 |
| C[C@@H]1CN(c2cc(-c3n[nH]c4ccc(-c5ccc6nncn6c5)cc34)ncn2)C[C@H](C)O1 | 60.6 |

====

Molecular target: LRRK2(G2019S mutation, GST-LRRK2(amino acids 970-2527)) (Homo sapiens (Human), UniProt Q5S007, G2019S)
Assay: LRRK2 Km ATP LanthaScreen Assay
Assay type: biochemical
Settings: Examples Q1-Q20
pIC50: −log10 of the molar value.
PARAMETER: pIC50

| GIVEN_SMILES | TEST_RESULT |
| --- | --- |
| C[C@@H]1CN(c2cc(-c3n[nH]c4ccc(-c5ccnc(C#N)c5)cc34)ncn2)C[C@H](C)O1 | 6.77 |
| Cc1nocc1-c1ccc2[nH]nc(-c3cc(N4C[C@@H](C)O[C@@H](C)C4)ncn3)c2c1 | 7.40 |
| C[C@@H]1CN(c2cc(-c3n[nH]c4ccc(-c5ccc(C#N)cc5)cc34)ncn2)C[C@H](C)O1 | 6.75 |
| C[C@@H]1CN(c2cc(-c3n[nH]c4ccc(-c5cccc(C#N)c5)cc34)ncn2)C[C@H](C)O1 | 7.32 |
| Cc1cncc(-c2ccc3[nH]nc(-c4cc(N5C[C@@H](C)O[C@@H](C)C5)ncn4)c3c2)c1 | 8.66 |
| COCCn1cc(-c2ccc3[nH]nc(-c4cc(N5C[C@@H](C)O[C@@H](C)C5)ncn4)c3c2)cn1 | 8.74 |
| COc1cc(-c2ccc3[nH]nc(-c4cc(N5C[C@@H](C)O[C@@H](C)C5)ncn4)c3c2)ccn1 | 6.81 |
| CCN(CC)C(=O)c1ccc(-c2ccc3[nH]nc(-c4cc(N5C[C@@H](C)O[C@@H](C)C5)ncn4)c3c2)cc1 | 6.07 |
| C[C@@H]1CN(c2cc(-c3n[nH]c4ccc(-c5ccc(C(=O)NCCO)cc5)cc34)ncn2)C[C@H](C)O1 | 7.11 |
| C[C@@H]1CN(c2cc(-c3n[nH]c4ccc(-c5cncnc5)cc34)ncn2)C[C@H](C)O1 | 7.52 |
| COc1cncc(-c2ccc3[nH]nc(-c4cc(N5C[C@@H](C)O[C@@H](C)C5)ncn4)c3c2)n1 | 8.62 |
| C[C@@H]1CN(c2cc(-c3n[nH]c4ccc(-c5cnc(N6CCCC6)s5)cc34)ncn2)C[C@H](C)O1 | 8.12 |
| Cc1ncc(-c2ccc3[nH]nc(-c4cc(N5C[C@@H](C)O[C@@H](C)C5)ncn4)c3c2)nc1C | 7.76 |
| C[C@@H]1CN(c2cc(-c3n[nH]c4ccc(-c5ccc6ncnn6c5)cc34)ncn2)C[C@H](C)O1 | 6.62 |
| COc1cnc(-c2ccc3[nH]nc(-c4cc(N5C[C@@H](C)O[C@@H](C)C5)ncn4)c3c2)cn1 | 7.20 |
